assay_system: IgG1 type humanized monoclonal antibody
observable: Kd

binder	Kd
CGB19H-3D (designed binder) MAYYDPETGTWYSGGRDTYKLILNGKTLKGETTTEAVDAATAEKVFKHYANEHGVHGHWTYDPETKTFTVTERPEVIDASELTPAVDTYKLILNGKTLKGETTTEAVDAATAEKVFKHYANEHGVHGHWTYDPETKTFTVTERPEVIDASELTPAVDTYKLILNGKTLKGETTTEAVDAATAEKVFKHYANEHGVHGHWTYDPETKTFTVTERPEVIDASELTPAVGGGGCHHHHHH	0.1 nM

Please look at the following binder next.
Q: I'd like to know its Kd. The binder in question is M-PG19 (designed binder) MDTYKLILNGKTLKGETTTEAVDAATAEKVFKHYANEHGVHGHWTYDPETKTFTVTE
Ans: 19 nM
